This collection of values is drawn from ChEMBL document CHEMBL1201862.

# Tested on: HOP-62
# protocol.description: NCI tumour cell line growth inhibition, 48 h
The source made the active and inactive calls. No stated cut-off is given here; in the data, active = GI50 up to about 1.1 µM and inactive = higher.
Classes used: 1 for active, -1 for inactive

compound | assigned.label
O=C1NC(c2cccc(OCc3ccccc3)c2)Nc2ccccc21 (stereo not given) | 1
COC(=O)[C@H]1C=C[C@@H](C)n2c(=O)c3ccccc3c(=O)n21 | -1
CC1=NN(C(=O)c2ccc(Cl)cc2)C(=O)/C1=C/c1c(O)cc(O)c2ccccc12 | -1
C1OC1CO[C@@H]1CO[C@H]2[C@@H]1OC[C@H]2OCC1CO1 (stereo not given in full) | -1
[N-]=[N+]=C1C(=O)c2ccccc2-c2ccccc21 | -1
CC1(C)CC(=O)C2=C(C1)S/C(=C1/SC3=C(S1)C(=O)CC(C)(C)C3)S2 | -1
CCOC(=O)C1(C(=O)OCC)OC(=O)NC2=C1CCCC2 | -1
BrCC[P+](c1ccccc1)(c1ccccc1)c1ccccc1 | -1
CCN(CC)CCCNc1nc(=O)[nH]c(C)c1C(=O)Nc1c2ccccc2nc2ccccc12 | -1
O=C(COc1ccc2c(=O)cc(-c3ccc(Cl)cc3)oc2c1)N1CCN(c2ccccc2)CC1 | -1
N#Cc1ccc(/C=[N+](/C=c2ccc(=C=[N-])cc2)N(CCO)C2=NCCN2)cc1 | -1
COc1cc([C@H]2Oc3cc(O)c4c(=O)cc(-c5ccc(O)cc5)oc4c3O[C@@H]2CO)ccc1O | -1
COC(CC1(OC)OC(=O)C=C1N)OC (stereo not given) | -1
CC(=O)Nc1ccc(-c2nnc(SCC(=O)Nc3ccccc3C)o2)cc1 | -1
COC(=O)C1=C(C)N(NC(N)=O)C2(N)N(NC(N)=O)C(C)=C(C(=O)OC)C12C(=O)OC (stereo not given) | -1

====

# Test system: SNB-19
# protocol.description: NCI tumour cell line growth inhibition, 48 h
The source made the active and inactive calls. No stated cut-off is given here; in the data, active = GI50 up to about 1.1 µM and inactive = higher. Where a SMILES comes first, the peptide text is derived from it. The star is where a group is joined. Boc = CC(C)(C)OC(=O)*; OSu = O=C1CCC(=O)N1O*
value.type: GI50

molecule | obs.value
COCC(OC)C(CC=C(C#N)C#N)OC (centres undefined) | > 100 µM (inactive)
CC(=O)CC(=O)CCC(=O)Nc1cccc(C(F)(F)F)c1 | > 100 µM (inactive)
CC(NC(=O)C(NC(=O)OC(C)(C)C)C(C)C)C(=O)NCC(=O)ON1C(=O)CCC1=O (stereo not drawn) (Boc-Val-Ala-Gly-OSu; configuration not given here) | > 100 µM (inactive)
Cc1ccc(S(=O)(=O)NC(=O)NC2=NC(C)(C)N(c3ccc(Cl)c(Cl)c3)C(N)=N2)cc1 | 97.9 µM (inactive)

====

# Tested on: SF-539
# protocol.description: NCI tumour cell line growth inhibition, 48 h
Calls of active or inactive are those of the source. Rule as the data show it: active = GI50 up to about 1.1 µM and inactive = higher.
GI50 values for the compounds below.
value.type: GI50

compound | value.type | obs.value
CCCCCCC(O)C/C=C/CCCCCC/C(C(=O)OC)=C(/O)C(=O)OCC (stereo not given) | GI50 | > 100 µM (inactive)
COC(=O)c1nc(Cl)nc(Cl)c1Cl | GI50 | 24.5 µM (inactive)
O=C(Sc1sc(=S)sc1SC(=O)c1ccccc1)c1ccccc1 | GI50 | 46.2 µM (inactive)
O=C(O)C1CCC(=O)N1S(=O)(=O)c1ccccc1 (stereo not given) | GI50 | > 100 µM (inactive)
CC(C)(C)OC(=O)CCCCCNC(=O)CCCCCNC(=O)CCC(CN(CC(=O)OCc1ccccc1)CC(=O)OCc1ccccc1)N(CC(=O)OCc1ccccc1)CC(=O)OCc1ccccc1 (stereo not given) | GI50 | > 100 µM (inactive)

====

# Test system: HL-60
# protocol.description: NCI tumour cell line growth inhibition, 48 h
The source made the active and inactive calls. No stated cut-off is given here; in the data, active = GI50 up to about 1.1 µM and inactive = higher.
Classes used: 1.0 = active, 0.0 = inactive

molecule | assigned.label
C[N+]1(C)CCC(C#N)(c2ccccc2)CC1 | 0.0
CCOc1ccc(N2C(=O)/C(=C/c3ccc(N(CCC#N)CCC#N)cc3)N=C2c2cc([N+](=O)[O-])ccc2Cl)cc1 | 0.0
CCCCc1ccc(Nc2nc(SC)c3[nH]cnc3n2)cc1 | 0.0
COc1cc2c(c(OC)c1OC)-c1ccc(SC)c(=O)cc1[C@@H](NC(=O)c1cccc([N+](=O)[O-])c1)CC2 | 1.0
COC1=CC(=O)C2=C(C1=O)[C@H]1CC[C@]3(C)[C@@H](OC(C)=O)CC[C@H]3[C@@H]1CC2 | 0.0
COC(=O)C(C)(NC(=O)C(CC(=O)OC(C)(C)C)NC(=O)OC(C)(C)C)c1ccccc1 (configuration not stated) | 0.0
Cc1ccc([S+]([O-])c2cccs2)cc1 (configuration not stated) | 0.0

====

# Test system: ACHN
# protocol.description: NCI tumour cell line growth inhibition, 48 h
Active and inactive are the calls of the source. Rule as the data show it: active = GI50 up to about 1.1 µM and inactive = higher.
Classes used: active, inactive

molecule | assigned.label
COc1ccc(N[C@H](C[S+]([O-])c2ccc(C)cc2)C(F)(F)F)cc1 (some centres undefined) | inactive
Nc1nc2ncn(CC(O)CO)c2c(=S)[nH]1 (centres undefined) | inactive
C1CN1c1nc(N2CC2)nc(N2CC2)n1 | active
CCN(CC)c1ccc(/N=N/c2ccc(-c3nc4cccnc4s3)cc2)cc1 | inactive
COC(=O)/C=C1\CCC(C)(C(=O)NS(=O)(=O)c2ccc(C)cc2)C1(C)C (centres undefined) | inactive
c1ccc([P+](CCNCCNCC[P+](c2ccccc2)(c2ccccc2)c2ccccc2)(c2ccccc2)c2ccccc2)cc1 | inactive
CCCCCCC(O)C/C=C/CCCCCC/C(C(=O)OC)=C(/O)C(=O)OCC (centres undefined) | inactive
Cc1cc(C)nc(NS(=O)(=O)c2ccc(NC(=O)c3ccc4nc5ccccc5c(Nc5ccc(S(=O)(=O)Nc6nc(C)cc(C)n6)cc5)c4c3)cc2)n1 | inactive
C=C1C(=O)OC2CC3(CO3)C3C(O)C(O)CC3(C)CC12 (centres undefined) | inactive

====

GI50 values for the compounds below.
# System: M14
# protocol.description: NCI tumour cell line growth inhibition, 48 h
Activity calls are given as the source filed them. Rule as the data show it: active = GI50 up to about 1.1 µM and inactive = higher.
value.type: GI50

compound | obs.value
COc1ccc(C[C@@H](CO)NC2=C(C#N)CCC2)cc1 | 41.4 µM (inactive)
C/C(=C\C(=O)Nc1ccc2[nH]nnc2c1)Nc1ccc2[nH]nnc2c1 | > 100 µM (inactive)
COC(=O)C1CCOC(C)N1C(=O)OC(C)(C)C (stereo not given) | > 100 µM (inactive)
COc1ccc(C2C3=C(COC3=O)OC(C)(C)Oc3cc4c(cc32)OCO4)cc1OC (stereo not given) | 28.2 µM (inactive)
COc1cc(/C=c2/c3ccccc3n3c2cc(-c2ccccc2)[n+]3C)cc(OC)c1OC | 4.95 µM (inactive)
O=NN(CCCl)C(=O)NCCCl | 78.7 µM (inactive)
Clc1ccc(/C=N/c2ccc(Oc3ccc(Cl)cc3)c(Cl)c2)cc1 | 21.1 µM (inactive)
C#CN1C(=O)c2c(c(-c3ccccc3)c(-c3ccc(Oc4ccc(-c5c(-c6ccccc6)c6c(c(-c7ccccc7)c5-c5ccccc5)C(=O)N(C#C)C6=O)cc4)cc3)c(-c3ccccc3)c2-c2ccccc2)C1=O | 80.7 µM (inactive)
CCN(CC)CCNc1ccc2nnn3c4ccc(OC)cc4c(=O)c1c23 | 10.5 µM (inactive)
OCC1OC(c2n[nH]c3c(O)ncnc23)C(O)C1O (stereo not given) | 5.48 µM (inactive)
O=c1c(F)cn2c(=O)n1CCCCCCCn1c(=O)c(F)cn(c1=O)CCCCCCC2 | 36.1 µM (inactive)
Cc1nn(C(=O)c2ccc(Cl)cc2)c2c1C(c1ccccc1[N+](=O)[O-])SC(=N)N2 (stereo not given) | > 10 µM (inactive)
[N-]=[N+]=C1C(=O)c2ccccc2-c2ccccc21 | 44.6 µM (inactive)
ClCCN1CCOC1=C1C=CC=C1 | > 100 µM (inactive)
CC1=CC(O)(c2ccc(-c3ccccc3Cl)cc2)OC1=O (stereo not given) | > 100 µM (inactive)
O=C([C@H](O)[C@@H](O)c1ccc(Br)cc1)C12CC3CC(CC(C3)C1)C2 | 13.6 µM (inactive)
COc1ccc2c(=O)c3c([nH]c2c1)OCC3=O | > 100 µM (inactive)
CC1=NN(C(=O)c2ccc(Cl)cc2)C(=O)/C1=C/c1c(O)cc(O)c2ccccc12 | > 100 µM (inactive)
COC(=O)C(Cc1ccccc1)C(=O)NC(CNC(=O)OCc1ccccc1)C(=O)OCc1ccccc1 (stereo not given) | 15.3 µM (inactive)
CC(=O)OC1CCC2(C)C(=CCC3C2CCC2(C)C3CC3OC4(CCC(C)CN4)C(C)C32)C1 (stereo not given) | > 100 µM (inactive)
O=C(Sc1sc(=S)sc1SC(=O)c1ccccc1)c1ccccc1 | 68.9 µM (inactive)
[N-]=[N+]=Nc1ncnc2c1sc(=S)n2-c1ccccc1 | > 100 µM (inactive)
CCCCCCCCC/C=C1\CC(CO)(COC(=O)C2CCCCC2)OC1=O (stereo not given) | 18.6 µM (inactive)
O=C(COc1ccc2c(=O)cc(-c3ccc(Cl)cc3)oc2c1)N1CCN(c2ccccc2)CC1 | > 100 µM (inactive)
C/C(CC(=O)Nc1cccc(Cl)c1C)=N\NC(=O)c1ccncc1 | > 100 µM (inactive)
